Entry source: paper PMC8196714

- assayed_system: UniProt:Q62666
- Sequence (Q62666 1-530): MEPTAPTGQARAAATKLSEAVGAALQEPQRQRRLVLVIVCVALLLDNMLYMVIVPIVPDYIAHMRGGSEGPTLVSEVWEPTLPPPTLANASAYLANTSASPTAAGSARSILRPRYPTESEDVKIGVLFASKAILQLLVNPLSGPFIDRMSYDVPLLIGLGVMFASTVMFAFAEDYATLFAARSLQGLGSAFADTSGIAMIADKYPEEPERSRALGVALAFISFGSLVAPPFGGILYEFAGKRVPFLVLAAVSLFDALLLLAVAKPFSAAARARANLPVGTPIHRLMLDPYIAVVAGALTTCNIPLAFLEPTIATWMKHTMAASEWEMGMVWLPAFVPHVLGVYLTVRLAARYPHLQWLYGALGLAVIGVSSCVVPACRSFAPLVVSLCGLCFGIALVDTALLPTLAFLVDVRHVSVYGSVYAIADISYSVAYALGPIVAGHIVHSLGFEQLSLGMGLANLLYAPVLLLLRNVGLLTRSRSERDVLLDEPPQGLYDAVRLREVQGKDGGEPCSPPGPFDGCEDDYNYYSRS
- procedure_text: Displacement of [3H]vesamicol in membrane homogenates of PC12 cells stably expressing rat VAChT
assay_metric: Ki

molecule="COc1cc2c(cc1OC)CN(CCCCn1ccc3ccc(F)nc31)CC2 [41 (RM273)]" assay_metric=Ki observed_measurement="> 2000 nM"

====

- assayed_system: σ2 receptors expressed in F98 cells (Rattus norvegicus, UniProt Q5U3Y7)
- Construct: σ2 receptors expressed in F98 cells; endogenous in cells
- Sequence (Q5U3Y7 1-176): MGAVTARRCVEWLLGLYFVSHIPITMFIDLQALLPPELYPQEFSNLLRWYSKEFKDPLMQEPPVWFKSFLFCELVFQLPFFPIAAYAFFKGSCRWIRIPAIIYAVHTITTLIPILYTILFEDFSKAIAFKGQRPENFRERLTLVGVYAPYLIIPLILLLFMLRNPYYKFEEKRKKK
- procedure_text: Homologous competition with membrane homogenates of F98 cells
- condition_parameters: F98 cell membrane homogenate, homologous competition
assay_metric: Kd (nM)

compound="COc1cc2c(cc1OC)CN(CCCCn1ccc3ccc([18F])nc31)CC2 [[^18F]RM273]" assayed_system="σ2 receptors expressed in F98 cells (Rattus norvegicus, UniProt Q5U3Y7)" assay_metric=Kd observed_measurement=12

====

- assayed_system: σ2 receptor (Rattus norvegicus, UniProt Q5U3Y7)
- procedure_text: σ2 receptor affinity, inhibition of [3H]DTG binding in rat liver membrane homogenates
- Set-up: preparations of membrane homogenates obtained from rat liver; from tissue; host or cells: rat liver
- condition_parameters: Ki σ1 from guinea pig σ1 receptors
Assign y to entries whose Selectivity (Ki σ1/Ki σ2) meets or exceeds 30; assign n to the rest.

molecule="COc1cc2c(cc1OC)CN(CCCCn1ccc3ccc(F)nc31)CC2 [41 (RM273)]" class_name=y
molecule=COc1cc2c(cc1OC)CN(CCCCn1ccc3nc(F)ccc31)CC2 class_name=y
molecule=COc1cc2c(cc1OC)CN(CCCCn1ccc3c(F)nccc31)CC2 class_name=n
molecule="COc1cc2c(cc1OC)CN(CCCCn1ccc3ccnc(F)c31)CC2 [42 (RM297)]" class_name=y
molecule=COc1cc2c(cc1OC)CN(CCCCn1ccc3cc(F)ncc31)CC2 class_name=y

====

- assayed_system: σ2 receptor (Rattus norvegicus, UniProt Q5U3Y7)
- Sequence (Q5U3Y7 1-176): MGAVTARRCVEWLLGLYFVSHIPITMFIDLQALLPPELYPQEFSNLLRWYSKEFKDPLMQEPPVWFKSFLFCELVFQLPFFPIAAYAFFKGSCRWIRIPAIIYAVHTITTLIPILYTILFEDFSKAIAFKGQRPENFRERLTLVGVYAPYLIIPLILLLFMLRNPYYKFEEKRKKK
- procedure_text: In vitro autoradiography on rat brain cryosections (healthy and orthotopic F98 glioblastoma)
- Type: binding
- Parameters: from tissue; host or cells: rat brain cryosections (SPRD healthy; Fisher F344 with orthotopic F98 glioblastoma)
- condition_parameters: orthotopically grown F98 tumor region, rat brain cryosections, n = 2
pKd: −log10 of the molar value.
assay_metric: pKd

compound="COc1cc2c(cc1OC)CN(CCCCn1ccc3ccc([18F])nc31)CC2 [[^18F]RM273]" assay_metric=pKd observed_measurement=8.32

====

- assayed_system: guinea pig σ1 receptors (Cavia porcellus, UniProt Q60492)
- Sequence (Q60492 whole entry): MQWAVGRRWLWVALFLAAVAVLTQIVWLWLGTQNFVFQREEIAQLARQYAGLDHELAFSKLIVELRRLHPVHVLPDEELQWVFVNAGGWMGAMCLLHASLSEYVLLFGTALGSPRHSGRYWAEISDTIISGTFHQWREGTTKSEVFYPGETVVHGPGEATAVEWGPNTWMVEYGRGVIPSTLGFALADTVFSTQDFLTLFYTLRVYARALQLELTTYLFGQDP
assay_metric: Ki (nM)

molecule=COc1cc2c(cc1OC)CN(CCCCn1ccc3nc(F)ccc31)CC2 assayed_system="guinea pig σ1 receptors (Cavia porcellus, UniProt Q60492)" observed_measurement=122
molecule="COc1cc2c(cc1OC)CN(CCCCn1ccc3ccnc(F)c31)CC2 [42 (RM297)]" assayed_system="guinea pig σ1 receptors (Cavia porcellus, UniProt Q60492)" observed_measurement=916
molecule="COc1cc2c(cc1OC)CN(CCCCn1ccc3ccc(F)nc31)CC2 [41 (RM273)]" assayed_system="guinea pig σ1 receptors (Cavia porcellus, UniProt Q60492)" observed_measurement=691
molecule=COc1cc2c(cc1OC)CN(CCCCn1ccc3c(F)nccc31)CC2 assayed_system="guinea pig σ1 receptors (Cavia porcellus, UniProt Q60492)" observed_measurement=80
